Assignment: determine reported inhibition at 1 µM for the given compounds.
- ASSAY SYSTEM: kinase domain protein of RC kinase (Homo sapiens)
- Sequence (Q56UN5 1061-1324 limits assumed): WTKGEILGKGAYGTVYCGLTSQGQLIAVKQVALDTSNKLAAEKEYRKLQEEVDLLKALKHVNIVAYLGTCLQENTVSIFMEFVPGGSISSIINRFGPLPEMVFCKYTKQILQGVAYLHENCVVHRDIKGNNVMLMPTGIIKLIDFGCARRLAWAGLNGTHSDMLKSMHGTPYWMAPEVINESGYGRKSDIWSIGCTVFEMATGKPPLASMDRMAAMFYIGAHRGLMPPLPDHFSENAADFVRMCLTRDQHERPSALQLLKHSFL
- PROTOCOL: Enzymatic assay for kinase inhibitory activity (Crebtide substrate, LANCE read-out)
- Assay type: biochemical
- CONDITION SET: compound at 1 μM

Below, 3 compounds whose answers are already recorded.
| COMPOUND | ASSAY SYSTEM | QUANTITY NAME | READOUT VALUE |
| --- | --- | --- | --- |
| COc1ccccc1/C=N/c1[nH]nc(Nc2ccc(Cl)cc2)c1C(N)=O [Compound B34] | kinase domain protein of RC kinase (Homo sapiens) | inhibition at 1 µM | ≤ 5% |
| NC(=O)c1c(Nc2ccc(Cl)cc2)n[nH]c1/N=C/c1ccc([N+](=O)[O-])cc1 [Compound B27] | kinase domain protein of RC kinase (Homo sapiens) | inhibition at 1 µM | 5 to 20% |
| NC(=O)c1c(Nc2cccc(Cl)c2)n[nH]c1/N=C/c1cc(O)ccc1O [Compound B38] | kinase domain protein of RC kinase (Homo sapiens) | inhibition at 1 µM | ≥ 50% |

For every listed record, write down its inhibition at 1 µM.
1. COc1ccc(/C=N/c2[nH]nc(Nc3cccc(Cl)c3)c2C#N)cc1F [Compound A93]
2. NC(=O)c1c(Nc2ccc(Cl)cc2)n[nH]c1/N=C/c1cccc2ccccc12 [Compound B25]
3. NC(=O)c1c(Nc2cccc(Cl)c2)n[nH]c1N=Cc1ccc(O)c([N+](=O)[O-])c1 [Compound B2]
4. NC(=O)c1c(Nc2ccccc2Cl)n[nH]c1/N=C/c1ccc(O)cc1 [Compound B117]
5. Cn1nc(C(F)(F)F)c(/C=N/c2[nH]nc(Nc3cccc(Cl)c3)c2C(N)=O)c1Cl [Compound B81]
6. COc1cccc(/C=N/c2[nH]nc(Nc3cccc(Cl)c3)c2C(N)=O)c1 [Compound B8]
7. NC(=O)c1c(Nc2cccc(Cl)c2)n[nH]c1/N=C/c1ccc(Oc2nccc(C(F)(F)F)n2)cc1 [Compound B75]
8. N#Cc1c(Nc2ccc(Cl)cc2)n[nH]c1/N=C/c1cccc2ccccc12 [Compound A40]

**Result**
1: 20 to 50%; 2: ≤ 5%; 3: ≥ 50%; 4: ≥ 50%; 5: ≤ 5%; 6: 20 to 50%; 7: 5 to 20%; 8: ≤ 5%

* * *

- ASSAY SYSTEM: kinase domain protein of RC kinase (Homo sapiens)
- PROTOCOL: Enzymatic assay for kinase inhibitory activity (Crebtide substrate, LANCE read-out)
- Format: biochemical
- CONDITION SET: compound at 1 μM
QUANTITY NAME: inhibition at 1 µM

Below, 5 compounds whose answers are already recorded.
| STRUCTURE SMILES | ASSAY SYSTEM | inhibition at 1 µM |
| --- | --- | --- |
| CC(C)(C)c1ccc(Nc2n[nH]c(/N=C/c3ccc(Cl)cc3)c2C#N)cc1 | kinase domain protein of RC kinase (Homo sapiens) | 5 to 20% |
| N#Cc1c(Nc2ccc(Cl)c(Cl)c2)n[nH]c1/N=C/c1ccc(O)cc1O | kinase domain protein of RC kinase (Homo sapiens) | ≤ 5% |
| NC(=O)c1c(Nc2cccc(Cl)c2)n[nH]c1/N=C/c1ccc(OC(F)F)c(O)c1 | kinase domain protein of RC kinase (Homo sapiens) | ≥ 50% |
| NC(=O)c1c(Nc2cccc(Cl)c2)n[nH]c1/N=C/c1ccc(O)cc1O | kinase domain protein of RC kinase (Homo sapiens) | ≥ 50% |
| COc1ccc(/C=N/c2[nH]nc(Nc3ccccc3Cl)c2C(N)=O)cc1[N+](=O)[O-] | kinase domain protein of RC kinase (Homo sapiens) | 5 to 20% |

For every listed record, write down its inhibition at 1 µM.
1. N#Cc1c(Nc2cccc(Cl)c2)n[nH]c1/N=C/c1ccc(Oc2ncccn2)cc1
2. COc1ccc(/C=N/c2[nH]nc(Nc3ccc(Cl)cc3)c2C#N)cc1

**Result**
1. 20 to 50%
2. ≤ 5%

For every listed record, write down its inhibition at 1 µM.
1. NC(=O)c1c(Nc2ccc(Cl)cc2)n[nH]c1/N=C/c1ccc(O)cc1
2. NC(=O)c1c(Nc2cccc(Cl)c2)n[nH]c1/N=C/c1cc(Cl)ccc1O

**Result**
1. ≥ 50%
2. 5 to 20%

For every listed record, write down its inhibition at 1 µM.
1. CS(=O)(=O)N1CCC(/C=N/c2[nH]nc(Nc3cccc(Cl)c3)c2C#N)CC1
2. NC(=O)c1c(Nc2ccccc2)n[nH]c1/N=C/c1ccc(O)c([N+](=O)[O-])c1
3. NC(=O)c1c(Nc2cccc(Cl)c2)n[nH]c1/N=C/c1ccc(O)cc1

**Result**
1. ≤ 5%
2. ≥ 50%
3. ≥ 50%

For every listed record, write down its inhibition at 1 µM.
1. COc1cccc(/C=N/c2[nH]nc(Nc3ccc(Cl)cc3)c2C(N)=O)c1
2. NC(=O)c1c(Nc2ccc(Cl)cc2)n[nH]c1/N=C/c1ccc(O)c([N+](=O)[O-])c1
3. NC(=O)c1c(Nc2cccc(Cl)c2)n[nH]c1/N=C/c1ccc(Cl)nc1

**Result**
1. ≤ 5%
2. 20 to 50%
3. ≤ 5%

For every listed record, write down its inhibition at 1 µM.
1. NC(=O)c1c(Nc2ccccc2Cl)n[nH]c1/N=C/c1ccc([N+](=O)[O-])c(O)c1
2. COc1ccc(Nc2n[nH]c(/N=C/c3ccc(O)c([N+](=O)[O-])c3)c2C#N)cc1
3. COc1ccc(Nc2n[nH]c(/N=C/c3ccc(O)cc3)c2C#N)cc1
4. NC(=O)c1c(Nc2cccc(Cl)c2)n[nH]c1/N=C/c1ccc(Cl)cc1
5. N#Cc1c(Nc2ccccc2)n[nH]c1/N=C/c1ccc(O)c([N+](=O)[O-])c1
6. NC(=O)c1c(Nc2cccc(Cl)c2)n[nH]c1/N=C/c1cc(F)c(O)c(F)c1
7. COc1ccc(C=Nc2[nH]nc(Nc3cccc(Cl)c3)c2C(N)=O)cc1
8. COc1cc(/C=N/c2[nH]nc(Nc3cccc(Cl)c3)c2C(N)=O)cc(O)c1OC

**Result**
1: 20 to 50%; 2: ≤ 5%; 3: 5 to 20%; 4: 5 to 20%; 5: 5 to 20%; 6: ≥ 50%; 7: 5 to 20%; 8: 5 to 20%

For every listed record, write down its inhibition at 1 µM.
1. CC(C)(C)c1ccc(Nc2[nH]nc(N=Cc3ccc(O)cc3)c2C#N)cc1
2. N#Cc1ccc(/C=N/c2[nH]nc(Nc3cccc(Cl)c3)c2C#N)cc1
3. COc1ccc(/C=N/c2[nH]nc(Nc3cccc(Cl)c3)c2C#N)cn1

**Result**
1. 5 to 20%
2. 5 to 20%
3. 5 to 20%

For every listed record, write down its inhibition at 1 µM.
1. NC(=O)c1c(Nc2cccc(Cl)c2)n[nH]c1/N=C/c1ccc(Oc2ncccn2)cc1
2. NC(=O)c1c(Nc2cccc(Cl)c2)n[nH]c1/N=C/c1ccc(N2CCCC2)nc1
3. N#Cc1c(Nc2cccnc2)n[nH]c1/N=C/c1ccc(O)cc1

**Result**
1. ≥ 50%
2. 20 to 50%
3. 20 to 50%

**Query** Which measured inhibition at 1 µM value corresponds to N#Cc1c(Nc2cc(Cl)cc(Cl)c2)n[nH]c1/N=C/c1ccc(O)cc1 ?
**Result** 5 to 20%
